- System Tested: streptavidin (Streptomyces avidinii)
- Sequence (P22629 25-183): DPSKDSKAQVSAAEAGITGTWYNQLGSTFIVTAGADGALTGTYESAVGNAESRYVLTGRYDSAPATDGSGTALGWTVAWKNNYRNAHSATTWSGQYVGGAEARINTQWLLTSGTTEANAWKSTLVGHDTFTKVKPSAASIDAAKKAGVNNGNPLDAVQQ
- Type: binding
- Condition Details: peptide-streptavidin complex, association constant
Ends that are not written are not given here.
Our labelling divides records by Observed KA into ranges: b0 (below 0.05 µM⁻¹), b1 (0.05 µM⁻¹ to below 2 µM⁻¹), b2 (2 µM⁻¹ or more)

For orientation, consider the following solved cases.
INSERT INTO measurements (substance, category) VALUES
  ('cyclo-(AQYGHFAE)K (AQYGHFAEK; also: cyclic, ring closure not given here)', 'b0'),
  ('AECHPQFCIEGRK', 'b2'),
  ('AHPQFGAEK', 'b0'),
  ('cyclo-CHPQFC', 'b2'),
  ('HDHPQNL', 'b0'),
  ('RCCHPQCGMAEEC', 'b1');

Using the reported Observed KA, which band applies to "AECHPQGPPCIEGRK" ? b2

Which bin, given its Observed KA, does cyclo-CHPQGPPC (also: cyclic, closure type not given here) occupy? b1

Form: Item = "FSHPQNT" ; Class = ? b0

# bin label for "AECHPQFPCIEGRK" b1

Category of "RCCHPQCGMVEEC" : b2

Could you tell me which band "AECHPQFNCIEGRK" belongs to? b1

Class for cyclo-(AHPQFPAE)K (AHPQFPAEK; also: cyclic, ring closure not given here) ? b2

Kindly state the category for this substance: "RCCHPQFEPCMGC" b2

Returns: class label. Input: "AHPQFPAEK" b0
